# Tested on: KM12 colon
# assay-protocol: NCI tumour cell line growth inhibition, 48 h
measured-property: TGI

Example results:
>  <molecule>
Cc1c(Cl)cccc1NC(=O)c1sc2nc3c(cc2c1N)C(=O)CCC3

>  <target-under-test>
KM12 colon

>  <TGI>
> 100 µM

$$$$
>  <molecule>
COc1ccc(CCc2ccc3c(c2)OCO3)cc1

>  <target-under-test>
KM12 colon

>  <TGI>
> 100 µM

$$$$

Switching to the query record.
Incoming: Recorded TGI for CCCCCCCCC(C)CCCCCCCCC(=O)OCC(COP(=O)([O-])OCC[N+](C)(C)C)OC(=O)CCCCCCCCC(C)CCCCCCCC (stereo not drawn) with KM12 colon, please?
Outgoing: > 100 µM
